Test system: HOP-18 NSCLC
Run description: NCI tumour cell line growth inhibition, 48 h
Reported metric: TGI

>>> measured_value("C=CC[C@@]1(C#N)C[C@H](C[C@]2(C#N)C[C@H](CCl)OC(C)(C)O2)OC(C)(C)O1")
"> 100 µM"
>>> measured_value("N#CNc1nc(C(=O)Nc2ccc(Cl)cc2)cc(-c2ccccc2)n1")
"> 100 µM"
>>> measured_value("CO[C@@]12[C@H](COC(N)=O)C3=C(C(=O)C(C)=C(N)C3=O)N1C[C@@H]1N[C@@H]12")
"7.59 µM"
>>> measured_value("COc1cc(CCC(=O)NS(=O)(=O)c2ccccc2)cc(OC)c1OC")
"> 100 µM"
>>> measured_value("COc1cc(C(=C2SCCS2)c2nccc3cc(OC)c(OC)cc23)c([N+](=O)[O-])cc1OC")
"> 100 µM"
>>> measured_value("CC(=O)OC1C/C(C)=C/[C@H](O)CC(C)/C=C/[C@@]2(C)CCC(C(C)(C)O)C12 (stereo partly specified)")
"> 100 µM"
>>> measured_value("CN(C)C(=S)/N=c1\\ssc(=S)n1Cc1ccccn1")
"> 100 µM"
>>> measured_value("COc1ccc2c(c1)Cc1c-2[nH]c2cc3c(cc2c1=O)OCO3")
"58.2 µM"
>>> measured_value("CCCCCC/C=C/CCCCCCCc1cccc(O)c1C(=O)O")
"> 100 µM"
>>> measured_value("NC(=O)N/N=C1/CCCC/C1=C\\c1ccccc1")
"> 100 µM"
>>> measured_value("O/N=C1/C(=C/c2ccccc2)CCCC1C(NO)c1ccccc1 (stereo unspecified)")
"> 100 µM"

###

System: IGROV1 ovarian
Run description: NCI tumour cell line growth inhibition, 48 h; in the data active = GI50 below about 0.43 µM; inactive = the rest
Labels: YES for active, NO for inactive

>>> label_class("Cc1ccc(C(=O)Nc2ccccc2C(=O)N/N=C(\\c2ccccc2)c2ccccn2)cc1")
"YES"
>>> label_class("CCCCc1oc2ccccc2c1C(=O)c1cc(I)c(OCCN(CC)CC)c(I)c1")
"NO"
>>> label_class("C[C@@H]1CCC2[C@@H](C)[C@H](OC(=O)CCC(=O)NCCNC(=O)Cc3cc(=O)oc4cc(N(C)C)ccc34)O[C@@H]3O[C@]4(C)CC[C@@H]1C23OO4 (stereo partly specified)")
"NO"
>>> label_class("COc1cc(C(=O)/C=C/c2c(-c3cccs3)nc3ccccn23)cc(OC)c1OC")
"NO"
>>> label_class("CC(=O)[CH-]C(=O)c1ccccc1.CC(=O)[CH-]C(=O)c1ccccc1.CC12CC3(C)CC(C)(C1)CC([O-])(C2)C3.CC[O-].[Ti+4]")
"NO"
>>> label_class("COc1ccc(Cn2c3c(c4c(O)cccc42)C(=O)c2ccccc2-3)cc1")
"NO"

###

// values below are reported TGI
Test system: HL-60(TB) leukemia
Run description: NCI tumour cell line growth inhibition, 48 h
Reported metric: TGI (µM)

>>> measured_value("CC(=O)[CH-]C(=O)c1ccccc1.CC(=O)[CH-]C(=O)c1ccccc1.CC[O-].O=C1C=C([O-])C(=O)c2ccccc21.[Ti+4]")
80
>>> measured_value("C[C@@H]1CCC2[C@@H](C)[C@H](OC(=O)CCC(=O)NCCNC(=O)Cc3cc(=O)oc4cc(N(C)C)ccc34)O[C@@H]3O[C@]4(C)CC[C@@H]1C23OO4 (some centres undefined)")
6.77
>>> measured_value("Cc1ccc(-c2nc3n(c2/C=N\\N=C(N)N)CCS3)cc1")
78.3
>>> measured_value("CS(=O)(=O)OC1CCN(C2(c3cccc(O)c3)CCCCC2)CC1")
38.2
>>> measured_value("C=C1C(=O)O[C@H]2[C@H]1CC/C(COC(=O)NCc1cccc(OC)c1)=C\\CC[C@@]1(C)O[C@@H]21")
4.51
>>> measured_value("CCNC(=O)CCCCC(=O)c1c(C)[nH]c(/C=C2\\N=C(c3ccc[nH]3)C=C2OC)c1C")
5.41
>>> measured_value("O=C(Nn1c2c(sc1=NC1CC1)C(=O)c1ccccc1C2=O)c1cc2ccc1CCc1ccc(cc1)CC2")
6.26
>>> measured_value("O=C1O[C@H](COC(=O)c2ccccc2)[C@@H](OC(=O)c2ccccc2)C=C1OC(=O)c1ccccc1")
27.1
>>> measured_value("Cc1ccc(N2C(=O)C(O)=C(C(=O)C(C)(C)C)C2c2ccc([N+](=O)[O-])cc2)cc1 (centres undefined)")
33.9
>>> measured_value("CC(C)c1ccc(O)c(O)c(=O)c1 (tested in a mixture with another compound)")
2.39
>>> measured_value("COc1ccc2c(c1)Cc1c-2[nH]c2cc3c(cc2c1=O)OCO3")
29.2
>>> measured_value("O=C(Nc1ccccc1)OCc1nc2c([nH]1)C(=O)C=CC2=O")
15.2
>>> measured_value("CCOC(=S)SC/C(=N\\OC(C)(C)OC)c1ccccc1")
54.7
>>> measured_value("CCOC(=O)c1cn2ncnc(Oc3ccc(NC(=O)NCCN(CC)CC)c(Cl)c3)c2c1C")
4.07
>>> measured_value("CC1(C)OCC(C2OC(=O)C(OCc3ccccc3)=C2OCc2ccccc2)O1 (centres undefined)")
52
>>> measured_value("O=C(/C=C\\c1ccc(OCCCCCC[P+](c2ccccc2)(c2ccccc2)c2ccccc2)cc1)c1ccc2c(c1)OCCO2")
1.3
>>> measured_value("CCCCCCCCC[C@@H]1C[C@@H]2CCC3C(C(=O)OCCCCNC(=O)OCc4ccccc4)=C(C)NC(=N1)N32 (some centres undefined)")
4.01
>>> measured_value("CCCCCC/C=C\\CCCCCCCCCc1c(O)c(OC)cc(O)c1CN(C)C")
5.37
